Numbers sourced from the MegaScale stability set (Tsuboyama et al. 2023).

B1: HHH_rd2_0155 (parent)
chain: PPDDERKKAEKAARSGNEEKAREILERLGYSEDEARELAKRLR

# Variants of: B1
# experimental.protocol: folding stability dG (cDNA display proteolysis); higher = more stable
# run.parameters: PBS, room temperature
recorded.metric: folding stability dG (kcal/mol)
Give bare numbers, in kcal/mol.

Some entries whose results are on file:
PPDDERKKAEKAARSGNEEKAREILERLGYSWDEARELAKRLR [E32W]
1.42
PPDDERKKAEKAARSGNEELAREILERLGYSEDEARELAKRLR [K20L]
2.97

For each listed entry, give its folding stability dG.
1. PPDSERKKAEKAARSGNEEKAREILERLGYSEDEARELAKRLR [D4S]
2. PPDDERKKAEKAARSLNEEKAREILERLGYSEDEARELAKRLR [G16L]
3. PPDDERKKAEKAARSGNEEKAREILIRLGYSEDEARELAKRLR [E26I]
4. IPDDERKKAEKAARSGNEEKAREILERLGYSEDEARELAKRLR [P1I]
5. PPDDERKTAEKAARSGNEEKAREILERLGYSEDEARELAKRLR [K8T]
6. PPDDERKKAEKAARSGNEEKAREILENLGYSEDEARELAKRLR [R27N]

Output:
1. 2.16
2. 1.54
3. 2.65
4. 2.12
5. 1.81
6. 1.7

For each listed entry, give its folding stability dG.
1. PPDDERKKAEKAARSGNEEKAREILERLGYSEDEARELKKRLR [A39K]
2. PPDDERKKAEKAARSGNEEKAREILERLGYDEDEARELAKRLR [S31D]
3. HPDDERKKAEKAARSGNEEKAREILERLGYSEDEARELAKRLR [P1H]
4. PPDDERKKAEKAWRSGNEEKAREILERLGYSEDEARELAKRLR [A13W]
5. PPDDERKKAEKAARSGDEEKAREILERLGYSEDEARELAKRLR [N17D]

Output:
0.184
1.36
2.29
1.82
2.42
